- ASSAY SYSTEM: tubulin (purified brain tubulin) (Sus scrofa, UniProt P02550+P02554)
- Sequence (P02550 whole entry): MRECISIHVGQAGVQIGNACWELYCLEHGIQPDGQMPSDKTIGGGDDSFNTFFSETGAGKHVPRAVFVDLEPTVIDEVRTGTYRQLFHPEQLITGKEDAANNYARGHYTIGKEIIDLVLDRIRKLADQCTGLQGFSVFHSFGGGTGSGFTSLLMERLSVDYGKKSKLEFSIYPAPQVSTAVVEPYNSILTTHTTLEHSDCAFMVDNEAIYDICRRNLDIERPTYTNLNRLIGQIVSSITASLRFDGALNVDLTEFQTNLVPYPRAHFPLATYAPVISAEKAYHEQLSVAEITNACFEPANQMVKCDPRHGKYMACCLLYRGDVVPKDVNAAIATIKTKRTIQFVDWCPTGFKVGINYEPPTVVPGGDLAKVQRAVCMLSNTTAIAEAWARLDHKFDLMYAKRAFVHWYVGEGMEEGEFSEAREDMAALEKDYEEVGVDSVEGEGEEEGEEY
- Sequence (P02554 whole entry): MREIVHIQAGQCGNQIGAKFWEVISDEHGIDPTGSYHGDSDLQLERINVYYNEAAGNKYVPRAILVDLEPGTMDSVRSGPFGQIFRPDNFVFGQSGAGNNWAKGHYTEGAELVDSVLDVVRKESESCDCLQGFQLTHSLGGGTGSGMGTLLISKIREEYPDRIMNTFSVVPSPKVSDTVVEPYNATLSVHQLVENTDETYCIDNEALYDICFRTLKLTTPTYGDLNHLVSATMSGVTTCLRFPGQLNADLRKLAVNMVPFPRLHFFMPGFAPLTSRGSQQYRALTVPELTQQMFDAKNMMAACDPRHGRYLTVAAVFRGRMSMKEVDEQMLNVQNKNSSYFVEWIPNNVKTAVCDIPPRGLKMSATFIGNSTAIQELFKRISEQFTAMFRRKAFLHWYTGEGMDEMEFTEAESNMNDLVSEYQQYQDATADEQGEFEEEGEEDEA
- ASSAY TEXT: In vitro tubulin polymerization assay (fluorescence)
- Assay type: biochemical
- CONDITION NOTES: read-out: % Inhibition of Tubulin Polymerization at 10 µM
What inhibition at 10 µM was measured for each of the following?
Numbers only, in %.

The cases that follow already have their inhibition at 10 µM on record.
COc1ccc(C(=O)/C=C/c2cn(-c3ccccc3)nc2-c2ccc(OCc3ccccc3)cc2)cc1 [Compound 5k]: 32.8
O=C(/C=C/c1cn(-c2ccccc2)nc1-c1ccc(OCc2ccccc2)cc1)c1ccc(Cl)cc1 [Compound 5e]: 48.4

As a next step, examine the compound that follows.
Tell me measured inhibition at 10 µM for COc1ccc(C(=O)/C=C/c2cn(-c3ccccc3)nc2-c2ccc(OCc3ccccc3)cc2)c(OC)c1 [Compound 5p] please.
51.1

====

What pIC50 was measured for each of the following?
- Tested on: SiHa (cervical cancer cell line)
- ASSAY TEXT: In vitro cytotoxicity, MTT assay, SiHa
- Assay type: cell-based
- CONDITION NOTES: Homo sapiens, MTT, 48 h, cervical cancer, read-out: IC50 SiHa
- Experimental: The resultant compounds were tested for their in vitro cytotoxic activity by MTT assay against breast (MCF-7), cervical (SiHa), and prostate (PC-3) cancer cell lines, and the human embryonic kidney cell line (HEK). […] The cytotoxic effects of the selected compounds were evaluated by MTT assay on the above-mentioned cell lines. […] Percentage viability and IC50 values were used to determine the relative absorbance of treated versus control (untreated) cells.
Give bare numbers, as −log10 of the molar value.

The cases that follow already have their pIC50 on record.
O=C(/C=C/c1cn(-c2ccccc2)nc1-c1ccc(OCc2ccccc2)cc1)c1ccc(Cl)cc1 [Compound 5e]: 4.91
O=C(/C=C/c1cn(-c2ccccc2)nc1-c1ccc(OCc2ccccc2)cc1)c1ccc([N+](=O)[O-])cc1 [Compound 5i]: 4.46

As a next step, examine the molecule that follows.
Tell me measured pIC50 for COc1ccc(C(=O)/C=C/c2cn(-c3ccccc3)nc2-c2ccc(OCc3ccccc3)cc2)cc1OC [Compound 5o] please.
5.36

====

What pIC50 was measured for each of the following?
- Test system: HEK-293 (human embryonic kidney cells)
- ASSAY TEXT: In vitro cytotoxicity, MTT assay, HEK-293 normal cells
- Format: cell-based
- CONDITION NOTES: HEK293; MTT, 48 h, human normal cell line; read-out: IC50 HEK-293
pIC50: −log10 of the molar value.

The cases that follow already have their pIC50 on record.
O=C(/C=C/c1cn(-c2ccccc2)nc1-c1ccc(OCc2ccccc2)cc1)c1cccc(O)c1 [Compound 5d]: < 4.30
O=C(/C=C/c1cn(-c2ccccc2)nc1-c1ccc(OCc2ccccc2)cc1)c1ccc([N+](=O)[O-])cc1 [Compound 5i]: 4.34
O=C(/C=C/c1cn(-c2ccccc2)nc1-c1ccc(OCc2ccccc2)cc1)c1ccc(C(F)(F)F)cc1 [Compound 5r]: 4.42
COc1ccc(C(=O)/C=C/c2cn(-c3ccccc3)nc2-c2ccc(OCc3ccccc3)cc2)cc1OC [Compound 5o]: < 4.30
O=C(/C=C/c1cn(-c2ccccc2)nc1-c1ccc(OCc2ccccc2)cc1)c1ccc(Cl)c(Cl)c1 [Compound 5l]: < 4.30
COc1ccc(C(=O)/C=C/c2cn(-c3ccccc3)nc2-c2ccc(OCc3ccccc3)cc2)c(OC)c1 [Compound 5p]: < 4.30
O=C(/C=C/c1cn(-c2ccccc2)nc1-c1ccc(OCc2ccccc2)cc1)c1ccc(Cl)cc1 [Compound 5e]: < 4.30
O=C(/C=C/c1cn(-c2ccccc2)nc1-c1ccc(OCc2ccccc2)cc1)c1ccc(O)cc1O [Compound 5n]: < 4.30

Hi team, please reply with pIC50 for each item in this list.
1. COc1ccc(C(=O)/C=C/c2cn(-c3ccccc3)nc2-c2ccc(OCc3ccccc3)cc2)cc1 [Compound 5k]
2. O=C(/C=C/c1cn(-c2ccccc2)nc1-c1ccc(OCc2ccccc2)cc1)c1ccc(Cl)cc1Cl [Compound 5m]

< 4.30
< 4.30

====

- ASSAY SYSTEM: tubulin (purified brain tubulin) (Sus scrofa, UniProt P02550+P02554)
- ASSAY TEXT: In vitro tubulin polymerization assay (fluorescence)
- Type: biochemical
- CONDITION NOTES: read-out: % Inhibition of Tubulin Polymerization at 10 µM
RECORDED METRIC: inhibition at 10 µM (%)
Give bare numbers, in %.

COc1ccc(C(=O)/C=C/c2cn(-c3ccccc3)nc2-c2ccc(OCc3ccccc3)cc2)cc1OC: 66.4
O=C(/C=C/c1cn(-c2ccccc2)nc1-c1ccc(OCc2ccccc2)cc1)c1ccc(C(F)(F)F)cc1: 31.5
O=C(/C=C/c1cn(-c2ccccc2)nc1-c1ccc(OCc2ccccc2)cc1)c1ccc([N+](=O)[O-])cc1: 28.4
O=C(/C=C/c1cn(-c2ccccc2)nc1-c1ccc(OCc2ccccc2)cc1)c1ccc(Cl)c(Cl)c1: 55.2
O=C(/C=C/c1cn(-c2ccccc2)nc1-c1ccc(OCc2ccccc2)cc1)c1cccc(O)c1: 49.8
O=C(/C=C/c1cn(-c2ccccc2)nc1-c1ccc(OCc2ccccc2)cc1)c1ccc(Cl)cc1Cl: 33.8

Provide measured inhibition at 10 µM on tubulin (purified brain tubulin) (Sus scrofa, UniProt P02550+P02554) for O=C(/C=C/c1cn(-c2ccccc2)nc1-c1ccc(OCc2ccccc2)cc1)c1ccc(O)cc1O please.
47.6

====

- Test system: PC-3 (prostate cancer cell line)
- ASSAY TEXT: In vitro cytotoxicity, MTT assay, PC-3
- Type: cell-based
- CONDITION NOTES: Homo sapiens, 48 h, read-out: IC50 PC3
RECORDED METRIC: pIC50
One number for each entry, as −log10 of the molar value.

Tell me measured pIC50 for COc1ccc(/C=C\c2cc(OC)c(OC)c(OC)c2)cc1O [Combretastatin A-4, reference compound] please.
5.41

====

What melting point was measured for each of the following?

The cases that follow already have their melting point on record.
O=C(/C=C/c1cn(-c2ccccc2)nc1-c1ccc(OCc2ccccc2)cc1)c1ccc(Br)cc1: 178 to 180 °C
O=C(/C=C/c1cn(-c2ccccc2)nc1-c1ccc(OCc2ccccc2)cc1)c1ccc(C(F)(F)F)cc1: 186 to 188 °C
O=C(/C=C/c1cn(-c2ccccc2)nc1-c1ccc(OCc2ccccc2)cc1)c1cccc(O)c1: 184 to 186 °C
O=C(/C=C/c1cn(-c2ccccc2)nc1-c1ccc(OCc2ccccc2)cc1)c1ccc([N+](=O)[O-])cc1: 223 to 225 °C

Hi team, please reply with melting point for each item in this list.
1. O=C(/C=C/c1cn(-c2ccccc2)nc1-c1ccc(OCc2ccccc2)cc1)c1ccc(O)cc1
2. COc1ccc(C(=O)/C=C/c2cn(-c3ccccc3)nc2-c2ccc(OCc3ccccc3)cc2)c(Br)c1
3. O=C(/C=C/c1cn(-c2ccccc2)nc1-c1ccc(OCc2ccccc2)cc1)c1cccc([N+](=O)[O-])c1
4. COc1ccc(C(=O)/C=C/c2cn(-c3ccccc3)nc2-c2ccc(OCc3ccccc3)cc2)c(OC)c1
5. O=C(/C=C/c1cn(-c2ccccc2)nc1-c1ccc(OCc2ccccc2)cc1)c1ccc(Cl)c(Cl)c1
6. O=C(/C=C/c1cn(-c2ccccc2)nc1-c1ccc(OCc2ccccc2)cc1)c1ccccc1Cl
7. COc1ccc(C(=O)/C=C/c2cn(-c3ccccc3)nc2-c2ccc(OCc3ccccc3)cc2)cc1
8. Cc1ccc(C(=O)/C=C/c2cn(-c3ccccc3)nc2-c2ccc(OCc3ccccc3)cc2)cc1

1: 167 to 169 °C; 2: 174 to 176 °C; 3: 203 to 205 °C; 4: 226 to 228 °C; 5: 243 to 245 °C; 6: 182 to 184 °C; 7: 187 to 189 °C; 8: 205 to 207 °C

====

What melting point was measured for each of the following?

The cases that follow already have their melting point on record.
O=C(/C=C/c1cn(-c2ccccc2)nc1-c1ccc(OCc2ccccc2)cc1)c1ccc(F)cc1: 168 to 170 °C
O=C(/C=C/c1cn(-c2ccccc2)nc1-c1ccc(OCc2ccccc2)cc1)c1ccc(Cl)cc1Cl: 192 to 194 °C
O=C(/C=C/c1cn(-c2ccccc2)nc1-c1ccc(OCc2ccccc2)cc1)c1ccc(O)cc1O: 176 to 178 °C

As a next step, examine the compound that follows.
Tell me measured melting point for COc1ccc(C(=O)/C=C/c2cn(-c3ccccc3)nc2-c2ccc(OCc3ccccc3)cc2)cc1OC please.
206 to 208 °C
